# targetUnderTest: soluble human insulin mini-receptor (mIR) (human, UniProt P06213-2 28-746, limits assumed)
# methodNotes: FP vs FITC-RP9 on mIR
assayMetric: IC50 (nM)
Express it in nM; write the number only.

Exam item: For the binder FHENFYDWFVRQVSKK [H2C] , what IC50 is on record?
Marked response: 770
